binders and their reported conversion of 0708-30 by PAD4, 100 µM inhibitor
Target: recombinant human PAD4 (human, UniProt Q9UM07 1-663)
Sequence (Q9UM07 whole entry): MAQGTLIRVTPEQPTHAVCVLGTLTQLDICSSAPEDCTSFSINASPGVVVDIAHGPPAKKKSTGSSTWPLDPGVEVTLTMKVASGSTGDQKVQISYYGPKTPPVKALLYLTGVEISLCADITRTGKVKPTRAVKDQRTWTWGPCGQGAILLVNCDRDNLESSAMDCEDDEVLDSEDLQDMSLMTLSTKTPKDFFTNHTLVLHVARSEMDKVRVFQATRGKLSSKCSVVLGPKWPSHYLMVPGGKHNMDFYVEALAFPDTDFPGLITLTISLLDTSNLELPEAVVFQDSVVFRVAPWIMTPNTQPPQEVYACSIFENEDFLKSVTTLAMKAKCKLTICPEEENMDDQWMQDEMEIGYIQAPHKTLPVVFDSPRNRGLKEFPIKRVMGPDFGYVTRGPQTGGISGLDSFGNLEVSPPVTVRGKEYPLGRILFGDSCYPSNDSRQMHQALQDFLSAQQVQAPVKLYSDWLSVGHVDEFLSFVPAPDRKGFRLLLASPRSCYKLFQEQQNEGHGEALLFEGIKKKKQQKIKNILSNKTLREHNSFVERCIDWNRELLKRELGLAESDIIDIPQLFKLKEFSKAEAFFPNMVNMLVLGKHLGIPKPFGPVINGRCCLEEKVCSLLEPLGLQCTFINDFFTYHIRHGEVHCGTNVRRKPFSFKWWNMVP
Experiment: cell-based or functional assay
Numbered stars: 1 amine (or outer) side, 2 acyl side, 3 side chain; on linkers, the order of the positions; unused ones are H or OH. Square brackets hold non-standard residues; d marks the D form. Orn(CA) = ornithine chloroamidine, O(CA), N=C(CCl)NCCC[C@H](N[*:1])C(=O)[*:2]; Orn(fluoroacetimidoyl) = N=C(CF)NCCC[C@H](N)C(=O)O
Please respond with the number in % and leave the unit unwritten.

# count of solved cases: 3
# binder, reported.result
measured = [
    ("Ac-DSHKFD[Orn(fluoroacetimidoyl)]DFIYSD-NH2 (SMILES CC[C@H](C)[C@H](NC(=O)[C@H](Cc1ccccc1)NC(=O)[C@H](CC(=O)O)NC(=O)[C@H](CCCNC(=N)CF)NC(=O)[C@H](CC(=O)O)NC(=O)[C@H](Cc1ccccc1)NC(=O)[C@H](CCCCN)NC(=O)[C@H](Cc1c[nH]cn1)NC(=O)[C@H](CO)NC(=O)[C@H](CC(=O)O)NC(C)=O)C(=O)N[C@@H](Cc1ccc(O)cc1)C(=O)N[C@@H](CO)C(=O)N[C@@H](CC(=O)O)C(N)=O) [0741-05FA]", 14),
    ("Ac-FFDSHKWH[Orn(CA)]DFFYSD-NH2 (SMILES CC(=O)N[C@@H](Cc1ccccc1)C(=O)N[C@@H](Cc1ccccc1)C(=O)N[C@@H](CC(=O)O)C(=O)N[C@@H](CO)C(=O)N[C@@H](Cc1c[nH]cn1)C(=O)N[C@@H](CCCCN)C(=O)N[C@@H](Cc1c[nH]c2ccccc12)C(=O)N[C@@H](Cc1c[nH]cn1)C(=O)N[C@@H](CCCNC(=N)CCl)C(=O)N[C@@H](CC(=O)O)C(=O)N[C@@H](Cc1ccccc1)C(=O)N[C@@H](Cc1ccccc1)C(=O)N[C@@H](Cc1ccc(O)cc1)C(=O)N[C@@H](CO)C(=O)N[C@@H](CC(=O)O)C(N)=O) [0741-02CA]", 19),
    ("Ac-FFDSHKFD[Orn(CA)]DFIYSD-NH2 (SMILES CC[C@H](C)[C@H](NC(=O)[C@H](Cc1ccccc1)NC(=O)[C@H](CC(=O)O)NC(=O)[C@H](CCCNC(=N)CCl)NC(=O)[C@H](CC(=O)O)NC(=O)[C@H](Cc1ccccc1)NC(=O)[C@H](CCCCN)NC(=O)[C@H](Cc1c[nH]cn1)NC(=O)[C@H](CO)NC(=O)[C@H](CC(=O)O)NC(=O)[C@H](Cc1ccccc1)NC(=O)[C@H](Cc1ccccc1)NC(C)=O)C(=O)N[C@@H](Cc1ccc(O)cc1)C(=O)N[C@@H](CO)C(=O)N[C@@H](CC(=O)O)C(N)=O) [0741-03CA]", 14),
]

Then this binder:
Give the measured conversion of 0708-30 by PAD4, 100 µM inhibitor of Ac-DSHKFD[Orn(CA)]DFIYSD-NH2 (SMILES CC[C@H](C)[C@H](NC(=O)[C@H](Cc1ccccc1)NC(=O)[C@H](CC(=O)O)NC(=O)[C@H](CCCNC(=N)CCl)NC(=O)[C@H](CC(=O)O)NC(=O)[C@H](Cc1ccccc1)NC(=O)[C@H](CCCCN)NC(=O)[C@H](Cc1c[nH]cn1)NC(=O)[C@H](CO)NC(=O)[C@H](CC(=O)O)NC(C)=O)C(=O)N[C@@H](Cc1ccc(O)cc1)C(=O)N[C@@H](CO)C(=O)N[C@@H](CC(=O)O)C(N)=O) [0741-05CA] .
25
